Protocol: Phase 1 single escalating intravenous dose safety and pharmacokinetics (Example 6)
Format: in vivo, human
Run Conditions: male, human, whole blood; single IV bolus 300 μg, harmonic mean ± pseudo-standard deviation; read-out: t1/2 (converted)
Readout Name: half-life (h)
Answers are plain numbers, in h.

# get_value(readout='half-life', item= CO[C@H]1C[C@@H]2CC[C@@H](C)[C@@](O)(O2)C(=O)C(=O)N2CCCC[C@H]2C(=O)O[C@H]([C@H](C)C[C@@H]2CC[C@H](n3cnnn3)[C@H](OC)C2)CC(=O)[C@H](C)/C=C(\C)[C@@H](O)[C@@H](OC)C(=O)[C@H](C)C[C@H](C)/C=C/C=C/C=C/1C ) 35.9

----------
Protocol: Phase 1 single escalating intravenous dose safety and pharmacokinetics (Example 6)
Assay type: in vivo, human
Run Conditions: male, human, whole blood; single IV bolus 700 μg, mean ± SD
Readout Name: AUC(0-t) (ng·h/mL)
Give bare numbers, in ng·h/mL.

# get_value(readout='AUC(0-t)', item= CO[C@H]1C[C@@H]2CC[C@@H](C)[C@@](O)(O2)C(=O)C(=O)N2CCCC[C@H]2C(=O)O[C@H]([C@H](C)C[C@@H]2CC[C@H](n3cnnn3)[C@H](OC)C2)CC(=O)[C@H](C)/C=C(\C)[C@@H](O)[C@@H](OC)C(=O)[C@H](C)C[C@H](C)/C=C/C=C/C=C/1C ) 208

----------
Protocol: Phase 1 single escalating intravenous dose safety and pharmacokinetics (Example 6)
Assay type: in vivo, human
Run Conditions: male, human, whole blood; single IV bolus 100 μg, mean ± SD; read-out: AUC0-inf
Readout Name: AUC(0-inf) (ng·h/mL)
Numbers only, in ng·h/mL.

# get_value(readout='AUC(0-inf)', item= CO[C@H]1C[C@@H]2CC[C@@H](C)[C@@](O)(O2)C(=O)C(=O)N2CCCC[C@H]2C(=O)O[C@H]([C@H](C)C[C@@H]2CC[C@H](n3cnnn3)[C@H](OC)C2)CC(=O)[C@H](C)/C=C(\C)[C@@H](O)[C@@H](OC)C(=O)[C@H](C)C[C@H](C)/C=C/C=C/C=C/1C ) 35.3

----------
Protocol: Phase 1 single escalating intravenous dose safety and pharmacokinetics (Example 6)
Format: in vivo, human
Run Conditions: male, human, whole blood; single IV bolus 900 μg, mean ± SD; read-out: AUC0-inf
Readout Name: AUC(0-inf)

# get_value(readout='AUC(0-inf)', item= CO[C@H]1C[C@@H]2CC[C@@H](C)[C@@](O)(O2)C(=O)C(=O)N2CCCC[C@H]2C(=O)O[C@H]([C@H](C)C[C@@H]2CC[C@H](n3cnnn3)[C@H](OC)C2)CC(=O)[C@H](C)/C=C(\C)[C@@H](O)[C@@H](OC)C(=O)[C@H](C)C[C@H](C)/C=C/C=C/C=C/1C ) 254 ng·h/mL

----------
Protocol: Phase 1 single escalating intravenous dose safety and pharmacokinetics (Example 6)
Type: in vivo, human
Run Conditions: male, human, whole blood; single IV bolus 100 μg, mean ± SD
Readout Name: AUC(0-t)
# answer = value followed by unit

# get_value(readout='AUC(0-t)', item= CO[C@H]1C[C@@H]2CC[C@@H](C)[C@@](O)(O2)C(=O)C(=O)N2CCCC[C@H]2C(=O)O[C@H]([C@H](C)C[C@@H]2CC[C@H](n3cnnn3)[C@H](OC)C2)CC(=O)[C@H](C)/C=C(\C)[C@@H](O)[C@@H](OC)C(=O)[C@H](C)C[C@H](C)/C=C/C=C/C=C/1C [zotarolimus] ) 24.6 ng·h/mL
